Reference source: ChEMBL document CHEMBL4665654

Tested on: MCF7
Assay: Antiproliferative activity against human MCF7 cells assessed as cell growth inhibition after 72 hrs by sulforhodamine B assay
Assay type: functional, cell-based
Conditions: MCF7, 72 h
Measured pIC50 values are reported for all entries that follow.
Please express pIC50 as -log10 of the molar concentration.

Recorded pIC50, per entry:
[[record]]
molecule = "C=C(C)[C@@H]1CC[C@]2(C(=O)O)CC[C@]3(C)[C@H](CC[C@@H]4[C@@]5(C)C[C@@H](F)[C@H](O)C(C)(C)[C@@H]5CC[C@]43C)[C@@H]12"
endpointresult = 4.82

[[record]]
molecule = "C=C(C)[C@@H]1CC[C@]2(C(=O)O)CC[C@]3(C)[C@H](CC[C@@H]4[C@@]5(C)CC(F)[C@H](O)C(C)(C)[C@@H]5CC[C@]43C)[C@@H]12 (mixture of isomers)"
endpointresult = 5.04


Find the recorded pIC50 belonging to C=C(C)[C@@H]1CC[C@]2(C(=O)O)CC[C@]3(C)[C@H](CC[C@@H]4[C@@]5(C)C[C@H](F)[C@H](O)C(C)(C)[C@@H]5CC[C@]43C)[C@@H]12 and report it.
4.84
